target-or-system: Replicase polyprotein 1ab (Severe acute respiratory syndrome coronavirus 2)
method-description: Inhibition of SARS-CoV-2 PLpro using RLRGG-AMC substrate preincubated for 30 mins followed by substrate addition measured for 5 mins by fluorescence based assay
reported-endpoint: IC50 (nM)
Give the number; nM is assumed, so skip it.

Return IC50 measured with Replicase polyprotein 1ab (Severe acute respiratory syndrome coronavirus 2) given this compound: C/N=c1\nc(-c2ccccc2)n(-c2ccccc2)s1 655

// repeat for C/N=c1\nc(-c2ccc(F)cc2)n(-c2ccccc2)s1 and report 448

###

Kindly state IC50 for each of the entries shown.
target-or-system: Replicase polyprotein 1ab (Severe acute respiratory syndrome coronavirus 2)
method-description: Inhibition of full-length recombinant SARS-CoV-2 3CL protease expressed in Escherichia coli BL21 (DE3) cells using fluorogenic MCA-AVLQSGFR-Lys (Dnp)-Lys-NH2 substrate preincubated for 10 mins followed by substrate addition measured for 3.5 mins by FRET assay
A number alone suffices; assume nM.

Given C/N=c1\nc(-c2ccc(F)cc2)n(-c2ccccc2)s1 , state its recorded IC50. 118

// query: CN=C(S)N=C(Nc1ccccc1)c1ccccc1 40000

Then CCOc1ccc(-c2n/c(=N\C)sn2-c2ccc(F)cc2)cc1 ? 462

What would you report for C/N=c1\nc(-c2ccc(OC)cc2)n(-c2ccccc2)s1 ? 165

Repeat with C/N=c1\nc(-c2ccc(Cl)cc2)n(-c2ccccc2)s1 136

Would you mind doing C/N=c1\nc(-c2ccccc2)n(-c2ccc(F)cc2)s1 as well? 124

###

target-or-system: Replicase polyprotein 1ab (Severe acute respiratory syndrome coronavirus 2, UniProt P0DTD1)
method-description: Inhibition of full-length recombinant SARS-CoV-2 3CL protease expressed in Escherichia coli BL21 (DE3) cells using fluorogenic MCA-AVLQSGFR-Lys (Dnp)-Lys-NH2 substrate preincubated for 10 mins followed by substrate addition measured after 10 mins by FRET assay
reported-endpoint: IC50 (nM)
API: value field is a number in nM; no unit string.

Report IC50 for C/N=c1\nc(-c2ccccc2)n(-c2ccccc2)s1 please. 206

###

I'd appreciate it if you could supply pIC50 values for the items below.
target-or-system: Replicase polyprotein 1ab (Severe acute respiratory syndrome coronavirus 2, UniProt P0DTD1)
method-description: Inhibition of full-length recombinant SARS-CoV-2 3CL protease expressed in Escherichia coli BL21 (DE3) cells using fluorogenic MCA-AVLQSGFR-Lys (Dnp)-Lys-NH2 substrate preincubated for 10 mins followed by substrate addition measured for 3.5 mins by FRET assay
Value format note: pIC50 is -log10 of concentration (mol/L); just state the number.

Dear colleague, I am looking for the recorded pIC50 of the following compound: c1ccc(-c2n/c(=N\C3CC3)sn2-c2ccccc2)cc1 6.84

Subsequent entry: C/N=c1\nc(-c2ccc(OC)cc2)n(-c2cc(F)c(F)c(F)c2)s1 6.24

FC1(F)CC(/N=c2\nc(-c3ccccc3)n(-c3ccccc3)s2)C1 , same question. 6.49

Same question, C/N=c1\nc(-c2ccccc2)n(-c2ccccc2)s1 this time 6.71

Same thing, different compound: C/N=c1\nc(-c2ccc(OC)cc2)n(-c2ccc(F)cc2)s1 6.43
